test system: biotinyl-Trp-oxazolone; experiment: self-aminoacylation, catalytic enhancement (BWO) (fold over background); higher = more active; k-Seq, kA / k0A0; sequences stand for … in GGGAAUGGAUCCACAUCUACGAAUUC…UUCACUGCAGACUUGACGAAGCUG
This sample holds only a part of the variants without activity.
Classification field. Basis: self-aminoacylation. Definitions: band A: < 1; band B: ≥ 1 and < 7; band C: ≥ 7

macromolecule sequence	qualitative label
AUUCACACAGGUCAUCGGGUG [Fam2.2 aminoacylation ribozyme variant]	band B
CUACUUGAUACAAUCGGUCUG [Fam1A.1 aminoacylation ribozyme variant]	band A
AUUCACUUAGGUCAUCGGCUG [Fam2.2 aminoacylation ribozyme variant]	band B
AUUACCCUGGCCAUCGAGUGU [Fam2.1 aminoacylation ribozyme variant]	band B
CCACGCUUCAAGCAAUCGGCC [Fam1B.1 aminoacylation ribozyme variant]	band C

Lookup: Band for GUUCACCUAGGUCAUGGGGUG [Fam2.2 aminoacylation ribozyme variant] ?
Found: band B

Lookup: Band for AUACUUCCAACAAUCGGUCUG [Fam1A.1 aminoacylation ribozyme variant] ?
Found: band A

Lookup: Band for AUCUACCUAGGUCAUCGGGUG [Fam2.2 aminoacylation ribozyme variant] ?
Found: band C

Lookup: Band for CCACACUUCAAGCAGUCUGUC [Fam1B.1 aminoacylation ribozyme variant] ?
Found: band A

Lookup: Band for AUUACCCUCAUCAUCGAGUGA [Fam2.1 aminoacylation ribozyme variant] ?
Found: band C

Lookup: Band for CAACUUCAAACAAUCGGCCUG [Fam1A.1 aminoacylation ribozyme variant] ?
Found: band C

Lookup: Band for AUUCAUCUAGAUCAUCGGGUG [Fam2.2 aminoacylation ribozyme variant] ?
Found: band B

Lookup: Band for AUACACCUCGGUCAUCGGGUG [Fam2.2 aminoacylation ribozyme variant] ?
Found: band B

Lookup: Band for AUUUACCUACGUCAUCGGGUG [Fam2.2 aminoacylation ribozyme variant] ?
Found: band B

Lookup: Band for AAGUUUGUUGAUAGUCGCAAG [Fam3.1 aminoacylation ribozyme variant] ?
Found: band B

Data provenance is the supplement of paper PMC9233669.
